Field: absorption maximum. Provide a value for each of the molecules that follow.
method-notes: solvent given as SMILES
condition-description: in C1CCOC1
Lab book: enter the figure in nm, no units written.

Determine from records and report absorption maximum for C(=C\c1ccc(N(c2ccccc2)c2ccccc2)cc1)/c1ccc(-c2cc(-c3ccccn3)nc(-c3ccccn3)c2)cc1 382

Determine from records and report absorption maximum for CCCN1C(=O)c2c3c(c4c(c2C1=O)CCc1cc(-c2ccc(N(C)C)cc2)c(OC)cc1-4)-c1cc(OC)c(-c2ccc(N(C)C)cc2)cc1CC3 409

Determine from records and report absorption maximum for CCn1c2ccccc2c2cc(C#Cc3cc(C#Cc4ccc5c(c4)c4ccccc4n5CC)nc(OC)n3)ccc21 388

Determine from records and report absorption maximum for CCC1(CC)c2cc(/C=C/c3ccc(/C=C/c4ccc5c(c4)C(CC)(CC)c4cc(N6c7ccccc7Sc7ccccc76)ccc4-5)cc3)ccc2-c2ccc(N3c4ccccc4Sc4ccccc43)cc21 444.73

Determine from records and report absorption maximum for CCCCCCc1ccc2c3c(ccc2c1)O[B-](c1ccccc1)(c1ccccc1)[N+](c1cc([N+]2=Cc4c(ccc5cc(CCCCCC)ccc45)O[B-]2(c2ccccc2)c2ccccc2)cc([N+]2=Cc4c(ccc5cc(CCCCCC)ccc45)O[B-]2(c2ccccc2)c2ccccc2)c1)=C3 445

Determine from records and report absorption maximum for c1ccc2c(c1)c1ccccc1n2-c1ccc(-c2ccc3nc(-c4ccc(-n5c6ccccc6c6ccccc65)cc4)nn3c2)cc1 341

Determine from records and report absorption maximum for COc1cc(/C=C/c2nc3ccccc3o2)c(OC)cc1/C=C/c1nc(C)nc(/C=C/c2cc(OC)c(/C=C/c3nc4ccccc4o3)cc2OC)n1 431

Determine from records and report absorption maximum for c1ccc(-c2nc(-c3ccc(-c4nc(-c5ccccc5)c(-c5ccccc5)[nH]4)cc3)[nH]c2-c2ccccc2)cc1 361

Determine from records and report absorption maximum for CCCCCCCCC1(CCCCCCCC)c2cc(-c3ccc(C=C4C(=O)c5ccccc5C4=O)cc3)ccc2-c2ccc(-c3ccc(C=C4C(=O)c5ccccc5C4=O)cc3)cc21 436

Determine from records and report absorption maximum for COC(=O)C(Cc1ccc2oc(-c3ccc4c(c3)c3ccccc3n4-c3ccccc3)nc2c1)NC(=O)OC(C)(C)C (configuration not stated) 327.29

Determine from records and report absorption maximum for c1cc2c3c4c5c(cccc5cc3c1)-c1cccn1B4n1cccc1-2 505

Determine from records and report absorption maximum for CCn1c2ccccc2c2cc(C#Cc3cc(C#Cc4ccc5c(c4)c4ccccc4n5CC)nc(SC)n3)ccc21 396

Determine from records and report absorption maximum for Cc1cc(C)c(C2=C3C=C(c4ccccc4)C(c4ccccc4)=[N+]3[B-](F)(F)n3c2cc(-c2ccccc2)c3-c2ccccc2)c(C)c1 587

Determine from records and report absorption maximum for CCCCC[n+]1ccc(/C=C/c2ccc(N(C)C)c3ccccc23)c2ccccc21 502

Determine from records and report absorption maximum for O=c1c2cc(-n3c4ccccc4c4ccccc43)ccc2sc2ccc(-n3c4ccccc4c4ccccc43)cc12 408

Determine from records and report absorption maximum for CCC1(CC)c2cc(-c3cccs3)ccc2-c2c1c1c(c3c2C(CC)(CC)c2cc(-c4cccs4)ccc2-3)C(CC)(CC)c2cc(-c3cccs3)ccc2-1 340

Determine from records and report absorption maximum for Cn1c(=O)c(/N=N/c2cc(S(=O)(=O)O)ccc2C(=O)O)c(O)c2ccccc21 408

Determine from records and report absorption maximum for O=c1oc2ccccc2cc1-c1ccc([N+](=O)[O-])cc1 331

Determine from records and report absorption maximum for CCC1(CC)c2cc(Br)ccc2-c2c1c1c(c3c2C(CC)(CC)c2cc(-c4cccs4)ccc2-3)C(CC)(CC)c2cc(-c3cccs3)ccc2-1 338

Determine from records and report absorption maximum for Cc1ccc(C2=[N+]3C(=Cc4ccc(C)n4[B-]3(F)F)c3ccccc32)[nH]1 599

Determine from records and report absorption maximum for O=C1c2cccc3c(-n4c5ccccc5c5ccccc54)ccc(c23)C(=O)N1c1ccccc1 408

Determine from records and report absorption maximum for CC1=[N+]2C(=C(c3ccc(N(C)C)cc3)c3ccc(C)n3[B-]2(F)F)C=C1 506

Determine from records and report absorption maximum for N#Cc1c(N2CCCC2)cc(-c2ccccc2)c2c1-c1ccccc1C2 353

Determine from records and report absorption maximum for Cc1ccc2nc3c(nc2c1)c(-c1ccccc1)nn3C 425

Determine from records and report absorption maximum for CCCCCCc1ccc(-n2c3[n+](c4c5ccccc5c5ccccc5c42)[B-](C)(C)c2ccccc2-3)cc1 359

Determine from records and report absorption maximum for Oc1cccc(/N=C/c2ccccc2Oc2ccccc2)c1 327

Determine from records and report absorption maximum for CCN1c2ccc(/C=N/Nc3ccccn3)cc2Sc2cc(-c3ccccc3)ccc21 379

Determine from records and report absorption maximum for CN(C)c1ccc(C2=Cc3cccc[n+]3[B-](F)(F)O2)cc1 420

Determine from records and report absorption maximum for COc1cc(OC)cc(C2=C3C(C)=C(I)C(C)=[N+]3[B-](F)(F)n3c(/C=C/c4ccsc4)c(I)c(C)c32)c1 598

Determine from records and report absorption maximum for F[Si-](F)(c1ccccc1)(c1ccccc1)c1cc2ccccc2c2ccccc12 303

Determine from records and report absorption maximum for N#Cc1ccc(-n2cccc2)cc1 287

Determine from records and report absorption maximum for c1ccc(-c2cc(-c3ccc4ccc5c(-c6ccnc(-c7ccccn7)c6)ccc6ccc3c4c65)ccn2)nc1 362

Where these numbers come from: the Deep4Chem optical property database
